Documented mAb Binding (nm) across a set of binders
measurement-target: T1, mouse TrkB.hFc (mouse)
T1 construct: also called mTrkB.hFc; mTrkB-hFc
T1 sequence (chain, as listed by the source limits assumed): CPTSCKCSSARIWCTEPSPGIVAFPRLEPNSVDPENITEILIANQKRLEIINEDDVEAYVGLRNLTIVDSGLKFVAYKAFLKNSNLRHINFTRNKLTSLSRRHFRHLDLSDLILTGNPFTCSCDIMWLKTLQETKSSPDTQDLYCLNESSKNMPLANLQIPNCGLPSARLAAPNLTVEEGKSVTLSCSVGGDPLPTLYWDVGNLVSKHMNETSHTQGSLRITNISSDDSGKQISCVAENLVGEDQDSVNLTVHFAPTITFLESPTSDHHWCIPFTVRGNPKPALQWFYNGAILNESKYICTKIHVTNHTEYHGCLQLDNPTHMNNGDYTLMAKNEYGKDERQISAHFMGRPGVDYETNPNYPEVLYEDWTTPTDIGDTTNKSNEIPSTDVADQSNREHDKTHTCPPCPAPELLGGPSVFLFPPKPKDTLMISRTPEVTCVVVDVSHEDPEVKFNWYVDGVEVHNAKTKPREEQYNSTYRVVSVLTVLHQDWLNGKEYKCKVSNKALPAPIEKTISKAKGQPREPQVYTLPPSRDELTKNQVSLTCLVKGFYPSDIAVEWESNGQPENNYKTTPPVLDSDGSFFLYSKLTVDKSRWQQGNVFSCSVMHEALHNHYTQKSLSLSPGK
measurement-protocol: BLI Octet, captured mTrkB.hFc, 300 nM mAb (BDNF run)

[
  {
    "binder": "M2aM14178N (antibody, mouse IgG2a, V domains shown, Anti-mouse TrkB antibody from hybridoma, mouse IgG2a Fc; also called surrogate anti-mouse TrkB antibody) VH: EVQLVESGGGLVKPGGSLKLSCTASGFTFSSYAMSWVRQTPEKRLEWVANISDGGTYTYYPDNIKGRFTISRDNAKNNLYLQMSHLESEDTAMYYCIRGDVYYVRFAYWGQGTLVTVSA VL: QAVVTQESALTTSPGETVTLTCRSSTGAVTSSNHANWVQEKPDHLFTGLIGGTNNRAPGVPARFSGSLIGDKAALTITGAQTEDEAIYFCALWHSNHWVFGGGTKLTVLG",
    "mAb Binding (nm)": "0.47 nm"
  },
  {
    "binder": "M2aM14179N (antibody, mouse IgG2a, kappa, V domains shown, Anti-mouse TrkB antibody from hybridoma, mouse IgG2a Fc; also called surrogate anti-mouse TrkB antibody) VH: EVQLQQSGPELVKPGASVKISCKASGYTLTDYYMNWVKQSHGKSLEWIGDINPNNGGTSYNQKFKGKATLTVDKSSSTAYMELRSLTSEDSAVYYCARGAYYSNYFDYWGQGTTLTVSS VL: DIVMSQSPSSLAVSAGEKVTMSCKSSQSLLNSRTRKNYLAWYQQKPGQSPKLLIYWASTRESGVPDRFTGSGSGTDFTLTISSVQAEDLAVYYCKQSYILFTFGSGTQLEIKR",
    "mAb Binding (nm)": "0.42 nm"
  },
  {
    "binder": "M2aM14173N (antibody, mouse IgG2a, kappa, V domains shown, Anti-mouse TrkB antibody from hybridoma, mouse IgG2a Fc; also called surrogate anti-mouse TrkB antibody) VH: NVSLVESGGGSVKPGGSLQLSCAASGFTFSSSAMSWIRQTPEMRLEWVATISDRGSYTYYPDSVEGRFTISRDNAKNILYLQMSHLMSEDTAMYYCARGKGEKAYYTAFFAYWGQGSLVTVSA VL: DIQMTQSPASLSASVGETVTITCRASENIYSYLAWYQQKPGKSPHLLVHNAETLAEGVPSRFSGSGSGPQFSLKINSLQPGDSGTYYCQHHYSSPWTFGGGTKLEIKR",
    "mAb Binding (nm)": "0.42 nm"
  },
  {
    "binder": "H1M8037C (antibody, mouse IgG1, kappa, V domains shown, captured by anti-mFc in SPR; also called Comparator; comparator anti-TrkB monoclonal antibody) VH: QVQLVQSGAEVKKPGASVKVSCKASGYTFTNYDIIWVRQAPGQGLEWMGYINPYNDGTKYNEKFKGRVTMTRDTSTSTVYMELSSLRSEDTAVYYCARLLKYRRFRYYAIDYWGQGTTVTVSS VL: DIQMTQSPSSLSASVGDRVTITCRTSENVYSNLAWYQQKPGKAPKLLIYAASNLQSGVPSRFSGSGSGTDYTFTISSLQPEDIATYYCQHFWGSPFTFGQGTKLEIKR",
    "mAb Binding (nm)": "0.42 nm"
  }
]

Data credit: patent US20190161551A1
